- STUDY_TARGET: PKR K410E (Homo sapiens, UniProt P30613, K410E)
- Sequence (P30613 whole entry K410E): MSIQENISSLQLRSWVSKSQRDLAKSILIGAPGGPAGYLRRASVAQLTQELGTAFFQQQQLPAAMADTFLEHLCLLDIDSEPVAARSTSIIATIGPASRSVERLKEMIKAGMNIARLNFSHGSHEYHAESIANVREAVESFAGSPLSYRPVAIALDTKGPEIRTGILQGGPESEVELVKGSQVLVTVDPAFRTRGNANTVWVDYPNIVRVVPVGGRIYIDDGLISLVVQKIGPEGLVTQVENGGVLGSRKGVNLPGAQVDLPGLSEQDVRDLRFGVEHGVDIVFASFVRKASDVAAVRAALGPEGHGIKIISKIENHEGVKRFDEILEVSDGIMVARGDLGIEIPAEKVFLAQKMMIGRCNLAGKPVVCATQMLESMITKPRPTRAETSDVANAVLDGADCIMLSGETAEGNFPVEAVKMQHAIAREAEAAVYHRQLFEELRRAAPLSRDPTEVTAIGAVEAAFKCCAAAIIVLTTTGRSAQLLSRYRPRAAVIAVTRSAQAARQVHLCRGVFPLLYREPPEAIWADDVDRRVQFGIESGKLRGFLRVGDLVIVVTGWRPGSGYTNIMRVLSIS
- TEST_SUMMARY: PKR mutant assay (K410E), AC50, LDH/NADH-coupled, absorbance at 340 nm
- Format: biochemical
- ASSAY_CONDITIONS: Table 2; enzyme assay
QUANTITY: AC50

- COMPOUND: "Cc1nc2c(s1)c1cnn(Cc3ccc(CO)cc3)c(=O)c1n2C [Compound 44]"
  QUANTITY: "AC50"
  MEAS_VALUE: "> 800 nM"
- COMPOUND: "Cn1c2nc(NCc3ccccc3)sc2c2cnn(Cc3cccc4[nH]ncc34)c(=O)c21 [Compound 149]"
  QUANTITY: "AC50"
  MEAS_VALUE: "301 to 800 nM"
- COMPOUND: "Cc1nc2c(s1)c1cnn(Cc3cc[nH]n3)c(=O)c1n2C [Compound 68]"
  QUANTITY: "AC50"
  MEAS_VALUE: "< 300 nM"
- COMPOUND: "Cc1nc2c(s1)c1cnn(Cc3cccc(N)c3)c(=O)c1n2C [Compound 14]"
  QUANTITY: "AC50"
  MEAS_VALUE: "< 300 nM"
- COMPOUND: "Cc1nc2c(s1)c1cnn(CCO)c(=O)c1n2C [Compound 67]"
  QUANTITY: "AC50"
  MEAS_VALUE: "> 800 nM"
- COMPOUND: "Cn1c2nc(Cc3ccc(Cl)nc3)sc2c2cnn(Cc3cccc4[nH]ncc34)c(=O)c21 [Compound 150]"
  QUANTITY: "AC50"
  MEAS_VALUE: "> 800 nM"
- COMPOUND: "Cn1c2nc(Cc3cc[nH]n3)sc2c2cnn(Cc3ccc4c(c3)OCCO4)c(=O)c21 [Compound 122]"
  QUANTITY: "AC50"
  MEAS_VALUE: "< 300 nM"
- COMPOUND: "Cn1c2nc(NC(=O)Cc3cc[nH]n3)sc2c2cnn(Cc3cccc4[nH]ncc34)c(=O)c21 [Compound 180]"
  QUANTITY: "AC50"
  MEAS_VALUE: "> 800 nM"
- COMPOUND: "COc1cccc(Cn2ncc3c4sc(C(C)O)nc4n(C)c3c2=O)c1 (stereo not drawn) [Compound 52]"
  QUANTITY: "AC50"
  MEAS_VALUE: "< 300 nM"
